# Test System: HLA-A*02:01
# Assay Details: IEDB peptide-MHC binding, purified MHC/competitive/fluorescence; filed as Kd, often an IC50 or EC50 that approximates it; bounds were set here for any values at or beyond the usual limits of such assays
# Test Parameters: source organism: Orthohantavirus sinnombreense
Measured Quantity: Kd

Find the measured Kd of "GSFRKICGF" and report it.
≥ 20 µM

* * *

# Test System: HLA-B*51:01
# Assay Details: IEDB peptide-MHC binding, purified MHC/competitive/fluorescence; filed as Kd, often an IC50 or EC50 that approximates it; bounds were set here for any values at or beyond the usual limits of such assays
# Test Parameters: source organism: Escherichia coli
Measured Quantity: Kd (nM)
Your answer is read as nM, so omit the unit and give the number.

Find the measured Kd of "RAMACSALI" and report it.
2970
